Below, each entry is listed with its recorded Change in response rate.
Tested on: Rattus norvegicus
Test: Compound tested for its effect on conflict(FR) operant responding of rats at a dose of 10.0 mg/kg administered perorally.
Format: functional
Settings: route oral
Write down the numeric answer in % and omit the unit.

[in] For the compound `Oc1nc2c(c3nc(-c4ccc(F)cc4)nn13)CN(Cc1ccccc1)CC2` , give its measured Change in response rate value.
[out] 30

[in] Assign Change in response rate to the following record: CN1C(=O)CN=C(c2ccccc2)c2cc(Cl)ccc21 [DIAZEPAM]
[out] 425

[in] Quote Change in response rate reported for `Oc1nc2c(c3nc(-c4ccccc4F)nn13)CN(Cc1ccccc1)CC2` please.
[out] 206

[in] Supply recorded Change in response rate for `Oc1nc2c(c3nc(-c4ccccc4F)nn13)CN(Cc1cccnc1)CC2` here.
[out] 322

Measured values drawn from ChEMBL document CHEMBL1125833 for this set.
